assay.name: inhibitors of the yeast RAM network, primary screen, dse1pr::URA3 reporter, 5-FOA selection (AID 868);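 also: 0% = DMSO-only wells with no growth and 100% = 10 µM 1-NA-PP1 full growth; inhibition rescues growth on 5-FOA so higher OD means more RAM inhibition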
condition: S. cerevisiae dse1pr::URA3 reporter, 5-FOA growth OD615, 2 d; at 50 µM; stronger effect = higher value; analog-sensitive cbk1-as2 kinase mutant strain
Screen size: about 190,000 compounds; about 3,500 (1.8%) were called active. What follows is part of a selection rich in actives, with near analogues and random picks from the rest.

{"columns": ["compound", "inhibition, %"],
 "data": [
  ["Cn1c2ccccc2c(=O)c2c(O)cccc21", 11.3],
  ["COc1ccc([N+](=O)[O-])cc1NC(=O)CC1SC(=Nc2cccc(C)c2C)N(/N=C(\\C)c2ccc(C)cc2)C1=O (stereo not drawn)", 9.07],
  ["CCOC(=O)C(NC(C)=O)C(=O)Nc1ccc(OC)cc1 (stereo not drawn)", 1.23],
  ["CCc1ccc(C(=O)OCC(=O)Nc2cccc(S(=O)(=O)NC3=NCCCCC3)c2)cc1", 0.26],
  ["O=C1c2cccc(OCC(=O)N3N=C(c4cccs4)CC3c3ccc(F)cc3)c2CCN1Cc1ccccc1 (stereo not drawn)", 9.86],
  ["CC(C)OCCCNC(=O)c1ccc(C2SCC(=O)N2Cc2ccco2)cc1 (stereo not drawn)", 1.08],
  ["COc1ccc(/C=C2\\SC(=S)N(CC(=O)NNC(=O)c3ccncc3)C2=O)cc1", 4.19],
  ["Nc1cc(C(F)(F)F)ccc1N1CCOCC1", 2.42],
  ["O=c1cnnc(Nc2ccccc2F)[nH]1", 0.79],
  ["CCCCNC(=O)CSc1nc2ccc(NC(=O)CSc3nnc(N)s3)cc2s1", 2.71],
  ["Cc1ccc2nc(COc3ccc(N(C)S(=O)(=O)c4ccccc4)cc3)cc(=O)n2c1", 2.17],
  ["Cc1ccc(-c2csc3nnc(SCC(=O)NCc4ccco4)n23)cc1", 0.13],
  ["Cc1ccc(OC(=O)c2cc3ccccc3o2)cc1", 0.41],
  ["Cc1c(Nc2cc(N3CCCC(C)C3)c3nonc3c2[N+](=O)[O-])c(=O)n(-c2ccccc2)n1C (stereo not drawn)", 8.7],
  ["C#CCOCCOCCOCCNc1nc(N2CCN(C(=O)[C@H](C(C)C)n3cc(CCO)nn3)CC2)nc(N2CCN(C(=O)[C@H](C(C)C)n3cc(CCO)nn3)CC2)n1", 1.36],
  ["O=C(CCN1C(=O)/C(=C/c2cccs2)SC1=S)NNC(=O)c1cccc(O)c1", 9.69],
  ["CCc1c(C)nc2c(OC)cccc2c1Cl", 0.88],
  ["CNc1[nH]ncc1[N+](=O)[O-]", 0.14],
  ["CCOC(=O)CSC1=C(C#N)C(c2ccco2)C(C(=O)OCc2ccccc2)=C(C)N1 (stereo not drawn)", 17.6],
  ["CC1CCCC(C)N1/N=C/c1ccccc1OC(F)F (stereo not drawn)", -0.37],
  ["COc1ccccc1NC(=O)CN1CCN(S(=O)(=O)c2ccc(Br)cc2)CC1", 0.23],
  ["COc1ccc(CCNc2cc(C)nc3c(-c4ccc(Cl)cc4)c(C)nn23)cc1OC", -0.42],
  ["COc1ccc(Sc2nc(-c3ccccc3)ncc2OC)cc1", 4.55],
  ["C/C(CCC(=O)OC[C@H]1O[C@H](C#Cc2ccccc2)C=C[C@@H]1Oc1ccc(C)cc1)=N\\OC[C@@H](O)[C@H]1O[C@@H]2OC(C)(C)O[C@@H]2[C@H]1O", 11.1],
  ["COc1ccc2c(CC(=O)OCC(=O)Nc3ccccc3[N+](=O)[O-])coc2c1", 10],
  ["Cc1ccc(SCC(=O)Nc2ccc3c(c2)OCCO3)cc1", 0.6],
  ["O=C(CSc1nnc2scc(-c3ccc(F)cc3)n12)NCc1ccco1", 9.95],
  ["CCCCNC(=O)CSc1nc2ccc(NC(=O)CSc3nnc(COc4ccccc4C)n3C)cc2s1", 6.51],
  ["Cc1cccc(-n2c(SCC(=O)Nc3cccc(S(=O)(=O)NC4=NCCCCC4)c3)nc3ccccc3c2=O)c1C", 11.7],
  ["COc1ccc([N+](=O)[O-])cc1NC(=O)c1ccc(N(Cc2ccccc2C)S(C)(=O)=O)cc1", 4.39],
  ["Cn1c(=O)c(Sc2ccc(Cl)cc2)c(O)c2ccccc21", 1.1],
  ["O=S(=O)(c1ccc2c(c1)OCCO2)N1CCc2ccccc21", 2.45],
  ["COc1ccc(Cl)cc1NC(=O)NC(C)C(C)(C)C (stereo not drawn)", 12.8],
  ["CCn1c(=O)cc(O)c2ccccc21", -0.4],
  ["NS(=O)(=O)c1cccc(NC(=O)CSc2nc3ccccc3n2-c2ccccc2)c1", 6.21],
  ["COCc1c(N)c(C)nc(Cl)c1C#N", 0.6],
  ["COc1ccc(N2CCN(C(C)=C3C(=O)c4ccccc4C3=O)CC2)cc1", -1.52],
  ["Cc1ccc(OC(=O)c2ccccc2C(=O)OCC(F)(F)C(F)F)cc1", 8.9],
  ["N/C(=N/O)c1cccn1Cc1ccccc1[N+](=O)[O-]", 0.13],
  ["COc1ccc(Cl)cc1NC(=O)CNc1ccccc1F", -1.15],
  ["CC1=C(C(=O)Nc2ccccc2)C(c2ccco2)C(C#N)=C(SCC(N)=O)N1 (stereo not drawn)", -0.14],
  ["COC(=O)[C@@H](NC(=O)Nc1cc(Cl)ccc1C)C(C)C", 1.68],
  ["COc1ccc([N+](=O)[O-])cc1NC(=O)CCc1ccccc1", 0.95]
]}

Values were extracted from PubChem BioAssay AID868.
